Let's look at some compounds and their measured melting point.

Q. Record request: melting point value, item COc1ccccc1N1CCN(CCn2c(=O)c3sccc3n(C)c2=O)CC1
A. 149 to 151 °C

Q. Record request: melting point value, item Nc1cc(Br)cnc1CCCCNc1ncc(Cc2ccc(F)cc2)c(=O)[nH]1
A. 146 to 148 °C

Q. Record request: melting point value, item CC(C)c1ccc(NC(=O)NCCc2ccccn2)cc1
A. 72 to 73 °C

Q. Record request: melting point value, item O=C1[C@H](O)[C@@H](O)C(=O)N1Cc1ccccc1
A. 100 °C

* * *

Let's look at some compounds and their measured melting point.

The cases that follow already have their melting point on record.
INSERT INTO results (compound, property_measured, assay_value) VALUES
  ('CCCn1cnc2c1c(=O)n(CCCCCCOc1ccc(OC)cc1)c(=O)n2C', 'melting point', '56 to 67 °C'),
  ('N#Cc1ccc(-c2ccc(OCCCCCCO)cc2)cc1', 'melting point', '87 to 89 °C');

Q. Record request: melting point value, item CCCCCCCCCCCCCCCCCCNC(=O)C(=O)Nc1ccc(O)cc1
A. 192 °C

Q. Record request: melting point value, item CCSc1cc(C)nc(SCC)c1NC(=O)CCCSc1nc2ccccc2o1
A. 123 to 125 °C

Q. Record request: melting point value, item CC(C)(C)c1cc(SCN2C(=O)CC(Sc3cc(C(C)(C)C)c(O)c(C(C)(C)C)c3)C2=O)cc(C(C)(C)C)c1O (centres undefined)
A. 138 to 140 °C

Q. Record request: melting point value, item CCCCc1oc2ccc(CO)cc2c1C(=O)c1ccc(O)cc1
A. 180 to 182 °C

Q. Record request: melting point value, item O=C(NCCO)/C(=C/c1ccc(C(F)(F)F)cc1F)NC(=O)c1ccc(OCCC(F)(F)F)cc1
A. 203 to 205 °C

Q. Record request: melting point value, item CCc1nc(-c2ncn3c4ccccc4c(=O)n(C)c23)no1
A. 199 to 202 °C

Q. Record request: melting point value, item Cc1cc(-c2nnc3c4ccccc4c(OCn4cccn4)nn23)no1
A. 235 to 237 °C

Q. Record request: melting point value, item O=S(Cc1ccccc1)c1ccccc1 (centres undefined)
A. 123 to 126 °C

Q. Record request: melting point value, item O=C1CCC(c2ccccc2)(c2ccccc2)C2CN(C(Cc3ccccc3)=NCCCc3ccccc3)CC12 (centres undefined)
A. 144 °C

Q. Record request: melting point value, item CC(C)c1cccc(C(C)C)c1NC(=O)NCC1(Nc2ccc(I)cc2)CCCC1
A. 176 °C

Q. Record request: melting point value, item CC(C)=Cc1sc(C#N)c2c1C(=O)CC(C)(C)C2
A. 115 to 117 °C

Q. Record request: melting point value, item COc1cc(N(C(=O)COCCOCC(N)=O)c2cc(OC)cc3ccc(C)nc23)c2nc(C)ccc2c1
A. 191 to 193 °C

Q. Record request: melting point value, item CC(O)(C(=O)Nc1ccc(S(=O)(=O)N(c2ccccc2)c2ccccc2)cc1)C(F)(F)F (centres undefined)
A. 217 to 220 °C

Q. Record request: melting point value, item COc1cccc(-c2nc(N)ncc2-c2ccc(=O)n(C(C)C)n2)c1
A. 211 °C

Q. Record request: melting point value, item CCCCC(=O)Nc1ccccc1C(N)=O
A. 119 to 120 °C

Q. Record request: melting point value, item CC(C)c1cn(C)cc(-c2ccc(Cl)c(C(F)(F)F)c2)c1=O
A. 85 to 87 °C

Q. Record request: melting point value, item CCn1c(=O)c2[nH]c(/C=C/c3cccc(C(F)(F)F)c3)nc2n(CC)c1=O
A. > 270 °C

Q. Record request: melting point value, item CS(=O)(=O)c1ccc(C(CC2CCC(=O)C2)C(=O)O)cc1Cl (centres undefined)
A. 164 to 167 °C

Q. Record request: melting point value, item NC(=O)c1cccc(NS(=O)(=O)c2cc(S(=O)(=O)Nc3cccc(C(N)=O)c3)c3cc(O)ccc3c2)c1
A. 169 to 171 °C
